Just for reference, ChEMBL document CHEMBL3885881 is where these values come from.

compounds and their reported ABSOLUTE MONOCYTE
Organism: Rattus norvegicus
Assay Notes: DrugMatrix - Regimen: Daily Repeat
Assay type: toxicity, organism-based, Sprague-Dawley
Set-up: regimen Daily Repeat, gender Male, age 6-8 weeks
Measurement Context: in vivo, iv, 0 mg/kg, 72 h, tissue Blood, dose level Control, time 3 day, vehicle 100 % SALINE
Measure Name: ABSOLUTE MONOCYTE (CELLS/uL)

1. CN(N=O)C(=O)N[C@@H](C=O)[C@@H](O)[C@H](O)[C@H](O)CO: 307.67
2. CC1(C)S[C@@H]2[C@H](NC(=O)[C@H](NC(=O)N3CCNC3=O)c3ccccc3)C(=O)N2[C@H]1C(=O)O: 94.67
3. CC[C@@]1(O)C(=O)OCc2c1cc1n(c2=O)Cc2cc3ccccc3nc2-1: 165.83
4. NCC[C@H](O)C(=O)N[C@@H]1C[C@H](N)[C@@H](O[C@H]2O[C@H](CN)[C@@H](O)[C@H](O)[C@H]2O)[C@H](O)[C@H]1O[C@H]1O[C@H](CO)[C@@H](O)[C@H](N)[C@H]1O: 67.83

----------
compounds and their reported LEUKOCYTE COUNT
Species on record: Rattus norvegicus
Assay Notes: DrugMatrix - Regimen: Daily Repeat
Format: toxicity, organism-based, Sprague-Dawley
Set-up: regimen Daily Repeat, gender Male, age 6-8 weeks
Measurement Context: in vivo, po, 10 mg/kg, 72 h, tissue Blood, route oral GAVAGE, dose level Low, time 3 day, vehicle .5 % CMC
Measure Name: LEUKOCYTE COUNT (x10E3/uL)

1. NS(=O)(=O)c1cc2c(cc1Cl)NCNS2(=O)=O [HYDROCHLOROTHIAZIDE]: 14.23
2. O=C1CN=C(c2ccccc2)c2cc([N+](=O)[O-])ccc2N1: 7.67
3. CC(=O)O[C@]1(C(C)=O)CC[C@H]2[C@@H]3C=C(Cl)C4=CC(=O)CC[C@]4(C)[C@H]3CC[C@@]21C [CHLORMADINONE ACETATE]: 11.8
4. COc1c(C)c2c(c(O)c1C/C=C(\C)CCC(=O)OCCN1CCOCC1)C(=O)OC2 [MYCOPHENOLATE MOFETIL]: 13.13

----------
Species on record: Rattus norvegicus
Assay Notes: DrugMatrix - Regimen: Daily Repeat
Assay type: toxicity, organism-based, Sprague-Dawley
Parameters: regimen Daily Repeat, gender Male, age 6-8 weeks
Measurement Context: in vivo, po, 10 mg/kg, 72 h, tissue Plasma, route oral GAVAGE, dose level Low, time 3 day, vehicle .5 % CMC
Measure Name: POTASSIUM (MEQ/L)

1. NS(=O)(=O)c1cc2c(cc1Cl)NCNS2(=O)=O [HYDROCHLOROTHIAZIDE]: 6.56
2. COc1c(C)c2c(c(O)c1C/C=C(\C)CCC(=O)OCCN1CCOCC1)C(=O)OC2 [MYCOPHENOLATE MOFETIL]: 5.93
3. O=C1CN=C(c2ccccc2)c2cc([N+](=O)[O-])ccc2N1: 5.83
4. CC(=O)O[C@]1(C(C)=O)CC[C@H]2[C@@H]3C=C(Cl)C4=CC(=O)CC[C@]4(C)[C@H]3CC[C@@]21C [CHLORMADINONE ACETATE]: 6.06

----------
Organism: Rattus norvegicus
Assay Notes: DrugMatrix - Regimen: Daily Repeat
Type: toxicity, organism-based, Sprague-Dawley
Parameters: regimen Daily Repeat, gender Male, age 6-8 weeks
Measurement Context: in vivo, po, 0 mg/kg, 72 h, tissue Blood, route oral GAVAGE, dose level Control, time 3 day, vehicle .5 % CMC
compounds and their reported NUCLEATED RED BLOOD CELLS
Measure Name: NUCLEATED RED BLOOD CELLS

1) CCc1ccc(C(=O)C(C)CN2CCCCC2)cc1 (centres undefined): 0 /100WBC
2) CCOC(=O)OC(C)OC1=C(C(=O)Nc2ccccn2)N(C)S(=O)(=O)c2ccccc21 (centres undefined): 0.5 /100WBC
3) O=c1[nH]cc(F)c(=O)[nH]1: 0 /100WBC
4) Brc1ccccc1: 0.5 /100WBC

----------
Organism: Rattus norvegicus
Assay Notes: DrugMatrix - Regimen: Daily Repeat
Type: toxicity, organism-based, Sprague-Dawley
Parameters: regimen Daily Repeat, gender Male, age 6-8 weeks
Measurement Context: in vivo, iv, 0 mg/kg, 72 h, tissue Blood, dose level Control, time 3 day, vehicle 100 % SALINE
Measure Name: ERYTHROCYTE COUNT (x10E6/uL)

1) NCC[C@H](O)C(=O)N[C@@H]1C[C@H](N)[C@@H](O[C@H]2O[C@H](CN)[C@@H](O)[C@H](O)[C@H]2O)[C@H](O)[C@H]1O[C@H]1O[C@H](CO)[C@@H](O)[C@H](N)[C@H]1O: 5.38
2) CN(N=O)C(=O)N[C@@H](C=O)[C@@H](O)[C@H](O)[C@H](O)CO: 5.47
3) CC[C@@]1(O)C(=O)OCc2c1cc1n(c2=O)Cc2cc3ccccc3nc2-1: 5.39
4) CC1(C)S[C@@H]2[C@H](NC(=O)[C@H](NC(=O)N3CCNC3=O)c3ccccc3)C(=O)N2[C@H]1C(=O)O: 5.63

----------
compounds and their reported MEAN CORPUSCULAR VOLUME
Organism: Rattus norvegicus
Assay Notes: DrugMatrix - Regimen: Daily Repeat
Type: toxicity, organism-based, Sprague-Dawley
Design: regimen Daily Repeat, gender Male, age 6-8 weeks
Measurement Context: in vivo, po, 1500 mg/kg, 72 h, tissue Blood, route oral GAVAGE, dose level High, time 3 day, vehicle .5 % CMC
Measure Name: MEAN CORPUSCULAR VOLUME

1. CCOC(=O)[C@H](CCc1ccccc1)N[C@@H](C)C(=O)N1[C@H](C(=O)O)C[C@@H]2CCC[C@@H]21: 67.37 fL
2. O=C1CCc2cc(OCCCCc3nnnn3C3CCCCC3)ccc2N1 [CILOSTAZOL]: 65.13 fL
3. COC(=O)c1ccc(O)cc1 [METHYLPARABEN]: 61.8 fL
4. NS(=O)(=O)c1cc2c(cc1Cl)NCNS2(=O)=O [HYDROCHLOROTHIAZIDE]: 59.7 fL

----------
Organism: Rattus norvegicus
Assay Notes: DrugMatrix - Regimen: Daily Repeat
Type: toxicity, organism-based, Sprague-Dawley
Parameters: regimen Daily Repeat, gender Male, age 6-8 weeks
Measurement Context: in vivo, po, 0 mg/kg, 72 h, tissue Plasma, route oral GAVAGE, dose level Control, time 3 day, vehicle .5 % CMC
compounds and their reported LIPASE
Measure Name: LIPASE

1) COC(=O)c1ccc(O)cc1 [METHYLPARABEN]: 9.17 u/L
2) Brc1ccccc1 [BROMOBENZENE]: 11 u/L
3) CN1CCC[C@@H]1CCO[C@](C)(c1ccccc1)c1ccc(Cl)cc1 [CLEMASTINE]: 10 u/L
4) CCc1ccc(C(=O)C(C)CN2CCCCC2)cc1 (centres undefined) [EPERISONE]: 9.8 u/L
5) CCOC(=O)OC(C)OC1=C(C(=O)Nc2ccccn2)N(C)S(=O)(=O)c2ccccc21 (centres undefined) [AMPIROXICAM]: 11 u/L
6) CC(/C=C1\SC(=S)N(CC(=O)O)C1=O)=C\c1ccccc1: 10 u/L
7) C=C1CC[C@H](O)C/C1=C/C=C1\CCC[C@]2(C)[C@@H]([C@H](C)/C=C/[C@H](C)C(C)C)CC[C@@H]12 [ERGOCALCIFEROL]: 8.67 u/L
8) CCC[C@@H]1C[C@@H](C(=O)N[C@@H]([C@H]2O[C@H](SC)[C@H](O)[C@@H](O)[C@H]2O)[C@@H](C)O)N(C)C1 [LINCOMYCIN]: 9 u/L
9) CC1(C)[C@H]2CC[C@]1(C)C(=O)C2 [(-)-CAMPHOR]: 9.5 u/L

----------
Species on record: Rattus norvegicus
Assay Notes: DrugMatrix - Regimen: Daily Repeat
Type: toxicity, organism-based, Sprague-Dawley
Parameters: regimen Daily Repeat, gender Male, age 6-8 weeks
Measurement Context: in vivo, po, 0 mg/kg, 72 h, tissue Plasma, route oral GAVAGE, dose level Control, time 3 day, vehicle .5 % CMC
Measure Name: GLUCOSE (mg/dL)

1. COC(=O)c1ccc(O)cc1: 164
2. CCC[C@@H]1C[C@@H](C(=O)N[C@@H]([C@H]2O[C@H](SC)[C@H](O)[C@@H](O)[C@H]2O)[C@@H](C)O)N(C)C1: 142.67
3. CCOC(=O)OC(C)OC1=C(C(=O)Nc2ccccn2)N(C)S(=O)(=O)c2ccccc21 (stereo not given): 158
4. NCC(=O)O: 173.5
5. CC(C)[C@H](N)C(=O)OCCOCn1cnc2c(=O)[nH]c(N)nc21: 151.67
6. O=c1[nH]cc(F)c(=O)[nH]1: 181.67
7. CC1(C)[C@H]2CC[C@]1(C)C(=O)C2 [(-)-CAMPHOR]: 171.33
8. CCc1cccc2c3c([nH]c12)C(CC)(CC(=O)O)OCC3 (stereo not given): 182.67
9. O=C1CCc2cc(OCCCCc3nnnn3C3CCCCC3)ccc2N1: 193.67
10. CC[C@H]1OC(=O)[C@H](C)[C@@H](O[C@H]2C[C@@](C)(OC)[C@@H](O)[C@H](C)O2)[C@H](C)[C@@H](O[C@@H]2O[C@H](C)C[C@H](N(C)C)[C@H]2O)[C@](C)(O)C[C@@H](C)/C(=N\OCOCCOC)[C@H](C)[C@@H](O)[C@]1(C)O: 182.67
